Target chain: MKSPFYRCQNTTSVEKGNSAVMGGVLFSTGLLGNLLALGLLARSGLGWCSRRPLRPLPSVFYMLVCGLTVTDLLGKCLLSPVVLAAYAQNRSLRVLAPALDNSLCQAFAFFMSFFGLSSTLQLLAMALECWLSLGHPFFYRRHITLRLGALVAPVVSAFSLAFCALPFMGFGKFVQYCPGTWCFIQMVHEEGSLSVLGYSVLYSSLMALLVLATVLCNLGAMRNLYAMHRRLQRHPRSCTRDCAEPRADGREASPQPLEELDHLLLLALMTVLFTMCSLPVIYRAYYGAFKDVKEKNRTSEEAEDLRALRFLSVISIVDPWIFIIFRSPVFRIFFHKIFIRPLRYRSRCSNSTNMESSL
RECORDED ENDPOINT: Ki

Problem: Consider the compound O=C(O)Cn1cc(Cc2nc3c(F)c(F)cc(F)c3s2)c2ccccc21 [Compound 20, reference compound] and give its recorded Ki.
Solution: 3.96 µM

====

SYSTEM NAME: CRTH2 (Homo sapiens)
Sequence (Q9Y5Y4 1-395): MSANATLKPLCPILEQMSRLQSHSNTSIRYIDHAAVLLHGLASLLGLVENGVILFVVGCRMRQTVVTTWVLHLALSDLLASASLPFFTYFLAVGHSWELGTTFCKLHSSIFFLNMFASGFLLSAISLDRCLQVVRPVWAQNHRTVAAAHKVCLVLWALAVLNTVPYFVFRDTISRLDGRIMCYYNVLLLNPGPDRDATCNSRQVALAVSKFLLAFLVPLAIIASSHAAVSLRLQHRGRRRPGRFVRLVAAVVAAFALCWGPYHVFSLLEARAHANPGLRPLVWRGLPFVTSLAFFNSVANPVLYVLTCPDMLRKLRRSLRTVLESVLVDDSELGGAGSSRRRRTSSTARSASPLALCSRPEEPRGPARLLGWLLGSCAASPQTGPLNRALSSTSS
MEASUREMENT PROTOCOL: Calcium mobilisation assay in CHO/CRTH2 cells (PGD2-induced calcium flux)
RUN PARAMETERS: read-out: IC50, inhibition of PGD2-induced calcium flux
Binary label based on IC50 with cut-off 50 nM: below gives yes (1), not below gives no (0).

| MOLECULE | GROUP |
| --- | --- |
| COc1ccc(Cc2c(C)n(CC(=O)O)c3ccc(F)cc23)cc1 | yes (1) |
| Cc1c(Cc2ccc3ccccc3c2)c2cc(F)ccc2n1CC(=O)O | yes (1) |
| Cc1c(C(C)c2ccc(S(C)(=O)=O)cc2)c2cc(F)ccc2n1CC(=O)O (centres unmarked) | no (0) |
| Cc1c(Cc2ccc3cccc(O)c3n2)c2cc(F)ccc2n1CC(=O)O | yes (1) |

As a next step, examine the molecule that follows.
Problem: Lab note: confirm whether the reported IC50 for this molecule is below 50 nM, equality not counting. molecule: `Cc1c(Cc2ccc(Cl)cc2)c2cc(F)ccc2n1CC(=O)O`
Solution: no (0)

====

SYSTEM NAME: CRTH2 (Homo sapiens)
MEASUREMENT PROTOCOL: Calcium mobilisation assay in CHO/CRTH2 cells (PGD2-induced calcium flux)
RUN PARAMETERS: agonist, n=3, read-out: EC50, increase in intracellular Ca2+ mobilisation
RECORDED ENDPOINT: EC50 (nM)
Just the number please, in nM, no unit attached.

Problem: Consider the compound CCCCC[C@H](O)/C=C/[C@H]1C(=O)C[C@H](O)[C@@H]1C/C=C\CCCC(=O)O [PGD2, prostaglandin D2, reference compound] and give its recorded EC50.
Solution: 2.4
